Listed next: entries and their corresponding pIC50.
Experiment: Displacement of [3H]ethynylpropylbicycloorthobenzoate from GABA receptor from rat cortical membrane by scintillation counting in absence of GABA
# reply with the number alone; pIC50 is -log10 of concentration in mol/L

Measured pIC50, `CC[C@H](c1ccccc1)n1cncc1C(=O)OC` : 3.95

Measured pIC50, `CCCOC(=O)c1cncn1[C@H](C)c1ccccc1` : 4.81

Measured pIC50, `CC(C)OC(=O)c1cncn1[C@H](C)c1ccccc1` : 4.68

Measured pIC50, `CC(=O)[C@H]1CC[C@H]2[C@@H]3CC[C@H]4C[C@H](O)CC[C@]4(C)[C@H]3CC[C@]12C` : 5.21

Measured pIC50, `CC(=O)[C@H]1CC[C@H]2[C@@H]3CC[C@H]4C[C@H](O)CC[C@]4(C)[C@H]3C(=O)C[C@]12C` : 4.07

Measured pIC50, `COC(=O)c1cncn1[C@H](C)c1ccccc1` : 3.79
